Molecular target: T1, human CD79b protein on DoHH2 and WSU-DLCL2 cells (human, UniProt P40259 29-229)
T1 sequence (looked up): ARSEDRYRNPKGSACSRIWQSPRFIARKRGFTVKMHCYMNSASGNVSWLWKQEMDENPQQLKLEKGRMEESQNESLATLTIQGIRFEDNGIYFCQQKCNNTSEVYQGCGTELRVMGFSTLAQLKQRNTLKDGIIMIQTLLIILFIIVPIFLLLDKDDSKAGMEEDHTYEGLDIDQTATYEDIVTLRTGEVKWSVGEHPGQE
Test: cell-based or functional assay
quantity-kind: IC50 of in vitro proliferation inhibition (MTT, 72 h), DoHH2 cells (ng/mL)

{"columns": ["binder", "endpoint-value"],
 "data": [
  ["ADC-7 (hAb015-10-cys-D, with a DAR value of about 6) (antibody, human IgG1, kappa, V domains shown, compound D (exatecan derivative linker-drug, Topo I inhibitor) coupled to cysteines after TCEP reduction; positions not given; mean n=5.84 per antibody (RP-HPLC)) VH: EVQLVQSGAEVKKPGSSVKVSCKASGSSFSSYGINWVKQAPGQGLEWIGEIFPRSGNTYYNEKFEGRATLTADKSTSTAYMELRSLRSEDTAVYYCAKGDLGDFDYWGQGTTVTVSS VL: DFVMTQTPLSLPVTPGEPASISCRSSQSIVHSDGNTYFEWYLQKPGQSPKLLIYKVSNRFSGVPDRFSGSGSGTDFTLKISRVEAEDVGVYYCFQGSHVPWTFGGGTKVEIKR", 2],
  ["ADC-5 (HAB015-10-cys-D, with a DAR value of about 2) (antibody, human IgG1, kappa, V domains shown, compound D (exatecan derivative linker-drug, Topo I inhibitor) coupled to cysteines after TCEP reduction; positions not given; mean n=1.81 per antibody (RP-HPLC), Antibody-drug conjugate of hAb015-10 with compound D) VH: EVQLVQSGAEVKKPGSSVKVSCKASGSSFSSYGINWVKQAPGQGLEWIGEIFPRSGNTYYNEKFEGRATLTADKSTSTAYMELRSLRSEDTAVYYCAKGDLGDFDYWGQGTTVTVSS VL: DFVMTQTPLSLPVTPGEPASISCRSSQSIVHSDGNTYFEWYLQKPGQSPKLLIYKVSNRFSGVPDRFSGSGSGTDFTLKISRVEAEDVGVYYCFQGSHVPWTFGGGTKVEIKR", 8.5],
  ["ADC-6 (hAb015-10-cys-D, with a DAR value of about 4) (antibody, human IgG1, kappa, V domains shown, compound D (exatecan derivative linker-drug, Topo I inhibitor) coupled to cysteines after TCEP reduction; positions not given; mean n=3.46 per antibody (RP-HPLC)) VH: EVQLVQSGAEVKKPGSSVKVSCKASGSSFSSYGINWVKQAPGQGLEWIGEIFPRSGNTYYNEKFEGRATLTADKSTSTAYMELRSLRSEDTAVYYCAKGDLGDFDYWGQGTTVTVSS VL: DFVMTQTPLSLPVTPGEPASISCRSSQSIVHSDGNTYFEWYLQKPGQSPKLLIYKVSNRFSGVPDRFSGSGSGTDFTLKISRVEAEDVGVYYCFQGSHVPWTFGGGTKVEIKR", 3.3],
  ["ADC-3 (hAb015-10-cys-MC-vc-PAB-MMAE) (antibody, human IgG1, kappa, V domains shown, MC-vc-PAB-MMAE coupled to cysteines after TCEP reduction; positions not given; mean n=3.09 per antibody (CE-SDS)) VH: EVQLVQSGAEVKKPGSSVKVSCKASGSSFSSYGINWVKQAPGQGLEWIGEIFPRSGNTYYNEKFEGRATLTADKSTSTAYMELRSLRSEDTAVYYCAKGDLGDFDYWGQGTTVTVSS VL: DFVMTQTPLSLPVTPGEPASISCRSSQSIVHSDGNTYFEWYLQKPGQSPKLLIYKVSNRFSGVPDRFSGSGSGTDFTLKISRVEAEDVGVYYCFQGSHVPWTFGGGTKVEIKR", 3.3],
  ["ADC-8 (SN8-cys-MC-PAB-MMAE, with a DAR value of about 4) (antibody, human IgG1, kappa, V domains shown, MC-VC-PAB-MMAE coupled to cysteines after TCEP reduction; positions not given; mean n=3.59 per antibody (CE-SDS)) VH: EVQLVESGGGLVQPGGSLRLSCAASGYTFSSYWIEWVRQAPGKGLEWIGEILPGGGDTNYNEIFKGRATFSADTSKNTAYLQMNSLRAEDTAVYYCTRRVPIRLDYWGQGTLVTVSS VL: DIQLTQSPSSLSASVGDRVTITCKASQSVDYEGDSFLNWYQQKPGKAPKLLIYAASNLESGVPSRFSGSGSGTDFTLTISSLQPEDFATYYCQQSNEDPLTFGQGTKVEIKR", 80.6]
]}
